Assay: Cell Viability - H-4-II-E (AID 543);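 note: cells exposed to compound for 40 hours; nearly all actives have a fitted effect of over 35% in size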
Details: H-4-II-E rat hepatoma viability; series mostly up to 92.2 µM
Description: NIH Chemical Genomics Center [NCGC] NIH Molecular Libraries Screening Centers Network [MLSCN] National Institutes of Environmental Health Sciences [NIEHS] National Toxicology Program [NTP] We have developed a 1536-well cell-based assay for quantitative high throughput screening (qHTS) against a number of cell lines to determine in vitro cytotoxicity of small molecules. This particular assay uses the H-4-II-E cell line which is derived from rat hepatoma. […] 8. Detection; Luminescence; Viewlux plate reader […]
Results filed as inconclusive are left out. Active and inactive are the calls of the source. Calls come from the whole dose curve; as a rule, active = well fitted cell-killing curve with a large enough effect; inconclusive = small, poorly fitted or top-dose-only effect; inactive = flat fitted curve, though single readings scatter.
Outcomes you can answer with include only these: Y for active, N for inactive

What was the test verdict on c1ccc2cc3c(cc2c1)-c1cccc2cccc-3c12 ? N

What was the test verdict on C[C@@H]1CC[C@@]2(OC1)O[C@H]1[C@@H](O)[C@H]3[C@@H]4CC[C@H]5C[C@@H](O[C@@H]6O[C@H](CO)[C@H](O[C@@H]7O[C@H](CO)[C@@H](O)[C@H](O[C@@H]8OC[C@@H](O)[C@H](O)[C@H]8O)[C@H]7O[C@@H]7O[C@H](CO)[C@@H](O)[C@H](O[C@@H]8O[C@H](CO)[C@@H](O)[C@H](O)[C@H]8O)[C@H]7O)[C@H](O)[C@H]6O)[C@H](O)C[C@]5(C)[C@H]4CC[C@]3(C)[C@H]1[C@@H]2C ? Y
